Collected from the literature: pKi of various compounds toward D(2) dopamine receptor (Homo sapiens, UniProt P14416).
Interpret pKi as the negative base-10 log of the concentration measured in mol/L.

| compound | pKi |
| --- | --- |
| CCOc1ccccc1N1CCN(CCCCc2cc(-c3ccc(OC)c(OC)c3)no2)CC1 | 6.92 |

Item CN1C(=O)c2ccccc2[S@+]([O-])c2ccc(C(=O)NCCN3CCCC3)cc21 has what recorded pKi? 6.68

Ok, now CN1CC=C(C2=Nc3cc(Cl)ccc3Nc3ccccc32)CC1 5.86

Ok, now Fc1ccc2c(C3CCN(CCCOc4ccc(CCN5CCCCC5)cc4)CC3)noc2c1 8.01

Ok, now COc1ccccc1N1CCN(CCCCNC(=O)/C=C/c2ccccc2Cl)CC1 7.82

Ok, now O=C1CCc2ccc(F)cc2N1CCCN1CCC(n2c(=O)[nH]c3ccccc32)CC1 7.05

Ok, now O=c1c(-c2ccc(F)cc2)c2n(c(=O)n1CCCCN1CCCC(c3c[nH]c4ccccc34)C1)CCCC2 (stereo not given) 5.70

Ok, now CC(C)c1ccccc1N1CCN(CCCCCC(=O)N2Cc3ccccc3C2)CC1 7.19

Ok, now O=C1CCc2c(F)cccc2N1CCCN1CCC(n2c(=O)[nH]c3ccccc32)CC1 7.22

Ok, now COc1ccccc1N1CCN(CCCN2C(=O)c3ccccc3C2=O)CC1 6.52

* * *

Collected from the literature: log10 Ki of various compounds toward D(2) dopamine receptor (Homo sapiens, UniProt P14416).
Remember, log10 of Ki, in nM.

| compound | measured-on | log10 Ki |
| --- | --- | --- |
| O=C(NCCC(F)CN1CCN(c2cccc(Cl)c2Cl)CC1)c1cc2ccccc2s1 (stereo not given) | D(2) dopamine receptor (Homo sapiens, UniProt P14416) | 2.67 |
| CC1(c2ccc(F)cc2)NC(=O)N(CC(O)CN2CCN(c3ccc(Cl)cc3)CC2)C1=O (stereo not given) | D(2) dopamine receptor (Homo sapiens, UniProt P14416) | 3.63 |
| Cc1ccc2c(c1)N=C(C1=C[C@H](C)N(C)CC1)c1cc(F)ccc1N2 | D(2) dopamine receptor (Homo sapiens, UniProt P14416) | 2.66 |
| O=C1c2cccc3cccc(c23)N1CCCCCCN1CCN(c2cccc(C(F)(F)F)c2)CC1 | D(2) dopamine receptor (Homo sapiens, UniProt P14416) | 2.70 |
| c1cnc(N[C@H]2CC[C@H](CCN3CCN(c4ncccn4)CC3)CC2)nc1 | D(2) dopamine receptor (Homo sapiens, UniProt P14416) | 2.38 |

Item CSc1ccc(C2(O)CCN(Cc3coc4ccccc34)CC2)cc1 has what recorded log10 Ki? 1.73

Ok, now Cc1cccn2cc(-c3ccc(OCCCCN4CCN(c5cccc(Cl)c5Cl)CC4)cc3)nc12 2.75

Ok, now c1ccc2c(c1)CCN(Cc1c[nH]c3ncccc13)C2 2.81

Ok, now O=C1c2ccccc2S(=O)(=O)N1CCCCCN1CCN(c2cccc3ccccc23)CC1 1.30

* * *

Collected from the literature: pKi of various molecules toward D(2) dopamine receptor (Homo sapiens, UniProt P14416).
Interpret pKi as the negative base-10 log of the concentration measured in mol/L.

| molecule | value |
| --- | --- |
| CCC(Oc1ccc(Cl)c(Cl)c1)c1nc(N)nc(N2CCN(C)CC2)n1 (racemic) | 6.24 |
| O=c1c(-c2ccccc2Cl)c2n(c(=O)n1CCCCN1CCCC(c3c[nH]c4ccccc34)C1)CCCC2 (stereo not given) | 6.05 |
| COc1ccccc1N1CCN(CCCCNC(=O)c2cccc(I)c2)CC1 | 7.17 |
| COc1ccccc1N1CCN(CCCCNC(=O)Cc2ccc3ccccc3c2)CC1 | 7.46 |

Form field: pKi recorded for COc1cccc(N2CCN(CC(O)CN3C(=O)NC(C)(c4ccc(F)cc4)C3=O)CC2)c1 (stereo not given) with D(2) dopamine receptor (Homo sapiens, UniProt P14416) (enter value) 5.29

Ok, now CC(=O)Nc1ccc(CCN(C)CC2Cc3ccc4c(ccn4S(=O)(=O)c4ccccc4)c32)cc1 (stereo not given) 6.60

Ok, now COc1ccc(-c2cc(CCCCN3CCN(c4ccccc4)CC3)on2)c(OC)c1 5.66
